These measurements were taken from ChEMBL document CHEMBL5104202.

Measured pIC50 accompanies every entry in the list below.
# Tested on: Acinetobacter baumannii
# protocolDescription: Antibacterial activity against efflux pump lacking/recombinant OM pore producing Acinetobacter baumannii assessed as inhibition of bacterial growth
# Format: functional, organism-based
pIC50: −log10 of the molar value.
parameter: pIC50

[[record]]
compound = "C[n+]1ccc(-c2ccc(N3C[C@H](CO)OC3=O)cc2F)cc1"
relationsign = "="
observedresult = 4.86

[[record]]
compound = "N[C@@H](Cc1cccc(-c2ccc(N3C[C@H](CO)OC3=O)cc2F)c1)C(=O)O"
relationsign = "<"
observedresult = 4.00

[[record]]
compound = "CCOC(=O)C1CCN(CC#Cc2ccc(N3C[C@H](CO)OC3=O)cc2F)CC1"
relationsign = "<"
observedresult = 4.00

[[record]]
compound = "O=C1O[C@@H](CO)CN1c1ccc(-c2cccnc2)c(F)c1"
relationsign = "="
observedresult = 5.37

[[record]]
compound = "CC(C(=O)NCC#Cc1ccc(N2C[C@H](CO)OC2=O)cc1F)N1CCN(C(=O)OC(C)(C)C)CC1 (some centres not stated)"
relationsign = "<"
observedresult = 4.00

[[record]]
compound = "C[n+]1ccc2cc(-c3ccc(N4C[C@H](CO)OC4=O)cc3F)ccc2c1"
relationsign = "="
observedresult = 4.55

[[record]]
compound = "COc1ccc(CN)cc1OCC#Cc1ccc(N2C[C@H](CO)OC2=O)cc1F"
relationsign = "<"
observedresult = 4.00

[[record]]
compound = "CC[n+]1ccc(-c2ccc(N3C[C@H](CO)OC3=O)cc2F)cc1"
relationsign = "="
observedresult = 4.41

[[record]]
compound = "C[n+]1cccc(-c2ccc(-c3ccc(N4C[C@H](CO)OC4=O)cc3F)cc2)c1"
relationsign = "="
observedresult = 4.90

[[record]]
compound = "O=C1O[C@@H](CO)CN1c1ccc(-c2ccccc2)c(F)c1"
relationsign = "="
observedresult = 5.72

[[record]]
compound = "C[n+]1cccc(-c2ccc(N3C[C@H](CO)OC3=O)cc2F)c1"
relationsign = "<"
observedresult = 4.00

[[record]]
compound = "O=C1O[C@@H](CO)CN1c1ccc(-c2cccc(CO)c2)c(F)c1"
relationsign = "="
observedresult = 5.12

[[record]]
compound = "COC(=O)c1ccccc1-c1ccc(N2C[C@H](CO)OC2=O)cc1F"
relationsign = "<"
observedresult = 4.00

[[record]]
compound = "O=C1O[C@@H](CO)CN1c1ccc(-c2ccnc(N3CCCC3)c2)c(F)c1"
relationsign = "="
observedresult = 4.14

[[record]]
compound = "O=C1O[C@@H](CO)CN1c1ccc(-c2cccc(S(=O)(=O)C(F)(F)F)c2)c(F)c1"
relationsign = "="
observedresult = 4.41

[[record]]
compound = "CCC[n+]1ccc(-c2ccc(N3C[C@H](CO)OC3=O)cc2F)cc1"
relationsign = "="
observedresult = 4.70

[[record]]
compound = "N=C(N)NCc1ccc(-c2ccc(N3C[C@H](CO)OC3=O)cc2F)cc1"
relationsign = "="
observedresult = 4.49

[[record]]
compound = "O=Cc1ccc(-c2ccc(N3C[C@H](CO)OC3=O)cc2F)cc1"
relationsign = "="
observedresult = 5.92

[[record]]
compound = "O=C1O[C@@H](CO)CN1c1ccc(-c2ccccn2)c(F)c1"
relationsign = "<"
observedresult = 4.00

[[record]]
compound = "CC(=O)OCC#Cc1ccc(N2C[C@H](CO)OC2=O)cc1F"
relationsign = "<"
observedresult = 4.00

[[record]]
compound = "NC(=S)Nc1cccc(C#Cc2ccc(N3C[C@H](CO)OC3=O)cc2F)c1"
relationsign = "<"
observedresult = 4.00

[[record]]
compound = "NCc1ccc(-c2ccc(N3C[C@H](CO)OC3=O)cc2F)cc1O"
relationsign = "="
observedresult = 4.81

[[record]]
compound = "CC(C)[n+]1ccc(-c2ccc(N3C[C@H](CO)OC3=O)cc2F)cc1"
relationsign = "="
observedresult = 4.65

[[record]]
compound = "O=C1O[C@@H](CO)CN1c1ccc(-c2ccc(OC(F)(F)F)cc2)c(F)c1"
relationsign = "="
observedresult = 5.19

[[record]]
compound = "C[n+]1ccc(-c2ccc(-c3ccc(N4C[C@H](CO)OC4=O)cc3F)cc2)cc1"
relationsign = "="
observedresult = 4.97

[[record]]
compound = "COC(=O)c1cncc(-c2ccc(N3C[C@H](CO)OC3=O)cc2F)c1"
relationsign = "="
observedresult = 4.92

[[record]]
compound = "CC(C)(C)OC(=O)N[C@@H](Cc1cccc(-c2ccc(N3C[C@H](CO)OC3=O)cc2F)c1)C(=O)O"
relationsign = "<"
observedresult = 4.00

[[record]]
compound = "Cc1ccc(-c2ccc(N3C[C@H](CO)OC3=O)cc2F)cc1"
relationsign = "="
observedresult = 5.80

[[record]]
compound = "Nc1ncc(-c2ccc(N3C[C@H](CO)OC3=O)cc2F)cn1"
relationsign = "="
observedresult = 4.28

[[record]]
compound = "CC(C)(C)OC(=O)NNC(=O)C(CC#Cc1ccc(N2C[C@H](CO)OC2=O)cc1F)NC(=O)OC(C)(C)C (some centres not stated)"
relationsign = "<"
observedresult = 4.00

[[record]]
compound = "O=C(O)c1cncc(-c2ccc(N3C[C@H](CO)OC3=O)cc2F)c1"
relationsign = "<"
observedresult = 4.00

[[record]]
compound = "O=C1O[C@@H](CO)CN1c1ccc(-c2ccccc2OC(F)(F)F)c(F)c1"
relationsign = "="
observedresult = 4.61

